# Target system: HPV-11 E2 (E2-dependent binding of E1 to the HPV-11 origin of replication) (Human papillomavirus 11, UniProt P04015)
# Sequence (P04015 whole entry): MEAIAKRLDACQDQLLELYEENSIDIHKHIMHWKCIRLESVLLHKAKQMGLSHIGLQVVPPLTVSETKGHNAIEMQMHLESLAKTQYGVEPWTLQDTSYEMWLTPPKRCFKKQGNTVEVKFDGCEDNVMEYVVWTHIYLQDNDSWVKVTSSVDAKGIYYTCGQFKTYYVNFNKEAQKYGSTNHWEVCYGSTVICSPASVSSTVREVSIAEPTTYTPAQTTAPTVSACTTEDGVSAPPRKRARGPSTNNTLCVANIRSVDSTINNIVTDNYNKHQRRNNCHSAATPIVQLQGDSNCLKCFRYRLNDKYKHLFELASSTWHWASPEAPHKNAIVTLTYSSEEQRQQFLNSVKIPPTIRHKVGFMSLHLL
Observed property: IC50 (nM)
API: value field is a number in nM; no unit string.

Endpoint output: IC50 of Cc1ccc2c(c1)C(=O)[C@]1(O[C@@H](c3ccc(Cl)c(Cl)c3)[C@@H](C(=O)Nc3ccc(-c4csnn4)cc3)[C@H]1C(=O)[O-])C2=O.[Na+] (racemic) . Value? 180

These entries and their values trace back to patent US7167801B2.
